Data provenance: ChEMBL document CHEMBL4002641

# pIC50 per entry for UniProt P05771
# Sequence (P05771 whole entry): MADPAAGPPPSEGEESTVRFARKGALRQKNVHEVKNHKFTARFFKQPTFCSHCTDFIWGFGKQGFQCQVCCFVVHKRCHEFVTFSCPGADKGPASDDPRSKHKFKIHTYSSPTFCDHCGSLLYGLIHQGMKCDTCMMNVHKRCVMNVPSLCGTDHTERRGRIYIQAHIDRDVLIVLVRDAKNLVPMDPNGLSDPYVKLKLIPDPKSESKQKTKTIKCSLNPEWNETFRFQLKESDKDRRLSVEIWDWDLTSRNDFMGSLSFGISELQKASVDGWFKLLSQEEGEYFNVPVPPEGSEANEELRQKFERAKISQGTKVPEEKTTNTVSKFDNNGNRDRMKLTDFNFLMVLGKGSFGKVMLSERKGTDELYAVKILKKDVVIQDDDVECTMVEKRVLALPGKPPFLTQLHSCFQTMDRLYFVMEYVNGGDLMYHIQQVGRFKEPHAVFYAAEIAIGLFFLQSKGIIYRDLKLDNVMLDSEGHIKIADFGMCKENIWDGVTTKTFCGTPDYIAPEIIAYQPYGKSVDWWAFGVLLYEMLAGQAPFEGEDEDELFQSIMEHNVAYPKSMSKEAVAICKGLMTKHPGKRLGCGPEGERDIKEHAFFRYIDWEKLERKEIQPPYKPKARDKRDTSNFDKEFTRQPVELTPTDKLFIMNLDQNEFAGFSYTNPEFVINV
Give only the number. pIC50 is defined as minus log10 of concentration in molar units.

Quick one: pIC50 of CN(Cc1ccc2ccc(Cl)c(C3=C(c4cn(C)c5ccccc45)C(=O)NC3=O)c2c1)C1CC1 ?
7.22

Thanks! And NCc1ccc2cccc(C3=C(c4c[nH]c5ccccc45)C(=O)NC3=O)c2c1 ?
7.12

Try this compound next: Cn1cc(C2=C(c3cccc4ccc(CN)cc34)C(=O)NC2=O)c2ccccc21
7.03

Repeat for the following compound: Cn1cc(C2=C(c3cccc4cc(CN)ccc34)C(=O)NC2=O)c2ccccc21
6.88

Check CN(C)Cc1ccc2c(C3=C(c4cn(C)c5ccccc45)C(=O)NC3=O)c(Cl)ccc2c1 too.
8.17

What about CN(C)Cc1ccc2ccc(Cl)c(C3=C(c4c[nH]c5ccccc45)C(=O)NC3=O)c2c1 ?
9.15

// query: Cn1cc(C2=C(c3c(Cl)ccc4ccc(CN5CCC5)cc34)C(=O)NC2=O)c2ccccc21
8.70

----------
biological target: UniProt P17252
metric: pKi
# log scale: pKi equals minus log10 of the concentration in mol/L

# lookup: pKi of CN(C)Cc1ccc2ccc(Cl)c(C3=C(c4cn(C)c5ccccc45)C(=O)NC3=O)c2c1
9.00

----------
target: Protein kinase C theta type (Homo sapiens, UniProt Q04759); assay: Inhibition of PKCtheta (unknown origin) after 60 mins in presence of [gamma33P]ATP by scintillation proximity assay
Sequence (Q04759 whole entry): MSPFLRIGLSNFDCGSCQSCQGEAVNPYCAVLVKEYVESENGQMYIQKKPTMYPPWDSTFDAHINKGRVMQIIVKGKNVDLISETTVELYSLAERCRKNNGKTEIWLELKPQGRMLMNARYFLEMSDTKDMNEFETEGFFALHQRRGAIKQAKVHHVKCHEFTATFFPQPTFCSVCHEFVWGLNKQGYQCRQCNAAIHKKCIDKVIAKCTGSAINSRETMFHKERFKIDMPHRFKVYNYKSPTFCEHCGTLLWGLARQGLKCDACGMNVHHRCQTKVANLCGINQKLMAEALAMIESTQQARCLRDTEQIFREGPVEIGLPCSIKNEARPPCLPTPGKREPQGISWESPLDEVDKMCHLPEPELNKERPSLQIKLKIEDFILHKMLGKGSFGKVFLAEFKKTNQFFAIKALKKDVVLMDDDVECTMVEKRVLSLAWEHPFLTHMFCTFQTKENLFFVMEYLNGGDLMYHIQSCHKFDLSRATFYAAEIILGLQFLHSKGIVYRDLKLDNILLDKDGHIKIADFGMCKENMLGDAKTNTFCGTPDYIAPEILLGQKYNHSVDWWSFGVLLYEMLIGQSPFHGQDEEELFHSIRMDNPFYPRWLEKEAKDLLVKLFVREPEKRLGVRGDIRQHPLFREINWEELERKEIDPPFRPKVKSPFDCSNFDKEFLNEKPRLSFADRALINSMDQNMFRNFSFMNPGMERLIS
For each of the compounds below, state its IC50.
Write the number in µM without appending the unit.

Item COCCNCc1ccc2ccc(Cl)c(C3=C(c4cn(C)c5ccccc45)C(=O)NC3=O)c2c1 has what recorded IC50?
0.021

Ok, now CN(C)Cc1ccc2ccc(Cl)c(C3=C(c4cn(C)c5ccccc45)C(=O)NC3=O)c2c1
0.263

Request: Cn1cc(C2=C(c3c(Cl)ccc4ccc(CN5CCC5)cc34)C(=O)NC2=O)c2ccccc21
0.254

----------
target: UniProt Q04759; experiment: Inhibition of PKCtheta (unknown origin) after 60 mins in presence of [gamma33P]ATP by scintillation proximity assay
pIC50: −log10 of the molar value.
Respond with rule met for pIC50 values of 7 and above, rule not met for values below.

I'd appreciate it if you could say whether CNCc1ccc2ccc(Cl)c(C3=C(c4cn(C)c5ccccc45)C(=O)NC3=O)c2c1 has pIC50 at least equal to 7.
rule met

Follow-up entry: CN(Cc1ccc2ccc(Cl)c(C3=C(c4cn(C)c5ccccc45)C(=O)NC3=O)c2c1)C1CC1
rule not met

What would you report for CN(C)Cc1ccc2ccc(Cl)c(C3=C(c4c[nH]c5ccccc45)C(=O)NC3=O)c2c1 ?
rule not met

Same lookup for Cc1ccc2ccc(CN)cc2c1C1=C(c2c[nH]c3ccccc23)C(=O)NC1=O , please.
rule not met

And what about the compound Cc1ccc2ccc(CN)cc2c1C1=C(c2cn(C)c3ccccc23)C(=O)NC1=O ?
rule not met

Another: CC(=O)N(C)Cc1ccc2ccc(Cl)c(C3=C(c4cn(C)c5ccccc45)C(=O)NC3=O)c2c1
rule not met

Same for CN(C)Cc1ccc2c(C3=C(c4c[nH]c5ccccc45)C(=O)NC3=O)c(Cl)ccc2c1
rule met

What about this compound? Cn1cc(C2=C(c3cccc4cc(CN)ccc34)C(=O)NC2=O)c2ccccc21
rule not met

Moving on to the next compound: NCc1ccc2cccc(C3=C(c4c[nH]c5ccccc45)C(=O)NC3=O)c2c1
rule not met
